Assay summary: Quantitative High-Throughput drug screen in 47 multiple myeloma cell lines against the NCATS MIPE library collection: XG6_PLB cell viability assay (AID 1919865);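 note: 100% = DMSO-only wells and 0% = media-only wells; nearly all actives have a fitted effect of over 40% in size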
Condition context: XG6 myeloma viability, CellTiter-Glo ATP luminescence, 48 h; series mostly up to 45.8 µM
Records with an inconclusive call do not appear. Activity calls are given as the source filed them. Calls come from the whole dose curve; as a rule, active = well fitted cell-killing curve with a large enough effect; inconclusive = small, poorly fitted or top-dose-only effect, or effect the other way; inactive = no such curve, though single readings can be large or run the other way.
Classes to choose from: active, inactive

Which outcome did this test record for the compound Nc1cccc2c1CN(C1CCC(=O)NC1=O)C2=O (stereo not given) ?
inactive

====

Listed here: items and their measured activity, negative = inhibition.
Assay summary: qHTS profiling for inhibitors of Plasmodium falciparum proliferation (AID 504749);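 note: 0% = DMSO vehicle and full inhibition = artemisinin control; nearly all actives have a fitted effect of over 60% in size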
Condition context: P. falciparum in erythrocytes, SYBR Green DNA, 72 h; at 28.7 µM (top of the series); parasite line A
Results filed as inconclusive are left out. The source made the active and inactive calls. The call rests on the fitted dose curve; in most records, active means well fitted inhibition curve with a large enough effect; inconclusive means small, poorly fitted or top-dose-only effect; inactive means flat fitted curve, though single readings scatter.

Here are 8 compounds together with their reported answers.
>>> df
                                   compound             result
0            C=CCc1cc(OC)c(O)c(C(=O)NCCO)c1   6.75% (inactive)
1   CNC[C@@H](O)[C@@H](O)[C@H](O)[C@H](O)CO   7.09% (inactive)
2  COc1ccc(C2(C#N)CCC(C(=O)O)CC2)cc1OC1CCCC1 (configuration not stated)   10.1% (inactive)
3  COCCCOc1ccnc(CS(=O)c2nc3ccccc3[nH]2)c1C (configuration not stated)    -29% (inactive)
4                 CNC[C@H](O)c1ccc(O)c(O)c1  -8.23% (inactive)
5  C[Se]CCC(N)C(=O)O (configuration not stated)   6.19% (inactive)
6                CS(=O)(=O)OCCCCOS(C)(=O)=O   5.89% (inactive)
7  Cc1nc2n(c(=O)c1CCN1CCC(c3noc4cc(F)ccc34)CC1)CCCC2   8.34% (inactive)

Entry O=C(O)c1cccc(-c2noc(-c3ccccc3F)n2)c1 : reported activity, negative = inhibition = ?
-1.01% (inactive)

What does the data say about its activity, negative = inhibition? Entry: Cn1c(NCCN(CCO)CCCc2ccc([N+](=O)[O-])cc2)cc(=O)n(C)c1=O
6.79% (inactive)

What value of activity, negative = inhibition has been reported for the following compound? Nc1cccc2c1CN(C1CCC(=O)NC1=O)C2=O (configuration not stated)
12.2% (inactive)

Data request, read-out activity, negative = inhibition, for Cc1ncc([N+](=O)[O-])n1CC(C)O (configuration not stated)
11.8% (inactive)

What value of activity, negative = inhibition has been reported for the following compound? O=C(NC(Cc1cc(=O)[nH]c2ccccc12)C(=O)O)c1ccc(Cl)cc1 (configuration not stated)
1.94% (inactive)

Param item = O=C(O)c1cc(=O)c2c(OCC(O)COc3cccc4oc(C(=O)O)cc(=O)c34)cccc2o1 ; retrieve measured activity, negative = inhibition.
8.12% (inactive)

Dear colleague, I am looking for the recorded activity, negative = inhibition of the following compound: Cc1ccc(C)c(OCCCC(C)(C)C(=O)O)c1
19.7% (inactive)

Reported activity, negative = inhibition for Cc1c(OCC(F)(F)F)ccnc1CS(=O)c1nc2ccccc2[nH]1 (configuration not stated) : what is it?
-19.3% (inactive)
